# System: Hs578T complex spheroid growth, percent test/control
# test.name: Anticancer human tumor Hs578T cell line growth inhibition [AhR];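 note: luminescent viability signal as a proxy for spheroid growth; spheroids exposed to agents for one week after three days of growth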
# setup.conditions: curve of first compound; second compound 3.16 µM
pIC50: −log10 of the molar value.
readout.type: pIC50

compound	reported.result
CC(C)c1c(-c2ccccc2)nc2c(C#N)c[nH]n2c1=O + Cc1cncc(-c2nc(NCCc3c[nH]c4ccccc34)c3ncn(C(C)C)c3n2)c1	< 5.00

Provide pIC50 for all items below, preserving their order.
1. CC1(C)CCC(CN2CCN(c3ccc(C(=O)NS(=O)(=O)c4ccc(NCC5CCOCC5)c([N+](=O)[O-])c4)c(Oc4cnc5[nH]ccc5c4)c3)CC2)=C(c2ccc(Cl)cc2)C1 + CC(CO)NC(=O)c1cc(-c2ccc(Cl)cc2)nn(-c2cnn(C)c2)c1=O
2. O=C(C=Cc1cccc(S(=O)(=O)Nc2ccccc2)c1)NO + Cc1cncc(-c2nc(NCCc3c[nH]c4ccccc34)c3ncn(C(C)C)c3n2)c1

Response:
1: < 5.00; 2: 6.12

All figures here come from PubChem BioAssay AID1919010.
